Reference source for all entries: patent US6825230B2

Test system: ANKA strain of P. berghei
Assay: Single dose STI in vivo screen in infected mice
Set-up: species or system Plasmodium berghei
Conditions: single 10 mg/kg po in SSV; untreated 6-7 days
Threshold 9 days: Survival (days) 10 mg/kg SSV po strictly smaller gives Yes, otherwise No.

Please review the following examples before continuing.
compound="O=C(NC[C@H]1CC[C@]2(CC1)OOC1(O2)C2CC3CC(C2)CC1C3)c1cc[n+]([O-])cc1 (some centres unmarked) [OZ264]" experimental_system="ANKA strain of P. berghei" cat=No
compound="OCC1(CO)COC2(CCC3(CC2)OOC2(O3)C3CC4CC(C3)CC2C4)OC1 (centres unmarked) [OZ121]" experimental_system="ANKA strain of P. berghei" cat=Yes

Pending compound:
Exam item: In the record for O=S(=O)(Cc1ccccc1)N1CCC2(CC1)OOC1(O2)C2CC3CC(C2)CC1C3 (centres unmarked) [OZ131] , is Survival (days) 10 mg/kg SSV po less than 9 days?
Marked response: Yes
